The reader will find reported pEC50 values listed item by item below.
- system_name: human TGR5 receptor (Homo sapiens, UniProt Q8TDU6)
- Sequence (Q8TDU6 whole entry): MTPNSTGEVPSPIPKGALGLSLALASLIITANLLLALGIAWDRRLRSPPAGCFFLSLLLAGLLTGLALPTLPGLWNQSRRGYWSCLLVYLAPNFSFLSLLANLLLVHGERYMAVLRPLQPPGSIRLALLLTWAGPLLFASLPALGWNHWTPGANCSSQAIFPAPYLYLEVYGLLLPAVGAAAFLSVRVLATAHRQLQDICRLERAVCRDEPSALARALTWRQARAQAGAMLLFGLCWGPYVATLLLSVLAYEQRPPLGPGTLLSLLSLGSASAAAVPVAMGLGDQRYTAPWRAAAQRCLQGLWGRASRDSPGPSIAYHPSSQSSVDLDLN
- test_method_notes: Human TGR5 cAMP production assay
- particulars: human TGR5, luminescent cAMP assay; coded A-D; read-out: Human TGR5 Lum. cAMP Activity (EC50)
- Description: Human TGR5 cAMP Production Assay We evaluated the Compounds of the present invention for their ability to induce cAMP production using CHO-K1 cells overexpressing the human TGR5 receptor. […] Test compounds were serially diluted (half-log dilutions) in DMSO and then further diluted 1:50 in PBS, 10 mM HEPES buffer. […] Luminescent signal was then detected using the Viewlux instrument (Perkin-Elmer, Waltham, Mass.). […]
pEC50: −log10 of the molar value.

Some compounds with known pEC50 results, for comparison:
Cc1cnccc1-c1cccc([C@H](C)N(CCCCNC(=O)CS(=O)(=O)O)S(=O)(=O)c2ccccc2C(F)(F)F)c1 [Compound 31AA]: > 7.00
Cc1cnccc1-c1cccc([C@H](C)N(CCCC(=O)NCCS(=O)(=O)NCC(=O)O)S(=O)(=O)c2ccccc2C(F)(F)F)c1 [Compound 20BJ]: > 7.00
O=S(=O)(NCc1ccc(F)c(-c2ccncc2)c1)c1cccc(C(F)(F)F)c1 [Compound 1AS]: 6.00 to 7.00
CCC(NS(=O)(=O)c1cccc(C(F)(F)F)c1)c1cccc(-c2ccncc2)c1 (stereo not drawn) [Compound 1BZ]: 6.00 to 7.00
CCc1cnccc1-c1cccc([C@H](C)N(CCCCNC(=O)NCS(=O)(=O)O)S(=O)(=O)c2ccccc2C(F)(F)F)c1 [Compound 28AH]: > 7.00
Cc1cnccc1-c1cccc([C@H](CCCC(=O)O)NS(=O)(=O)c2ccccc2C(F)(F)F)c1 [Compound 19AA]: 6.00 to 7.00
COc1cnccc1-c1cccc(C2CN(C(=O)CS(=O)(=O)O)CCN2S(=O)(=O)c2cccc(Cl)c2C)c1 (stereo not drawn) [Compound 49AF]: > 7.00
Cc1cnccc1-c1cccc(C(C)(C)N(CCCNS(=O)(=O)CCN2C(=O)c3ccccc3C2=O)S(=O)(=O)c2cccc(Cl)c2C)c1 [Compound 26A]: > 7.00

Inquiry: Quick check: pEC50 on human TGR5 receptor (Homo sapiens, UniProt Q8TDU6), item Cc1cnccc1-c1cccc([C@H](C)N(CCCC(=O)O)S(=O)(=O)c2cccc(Cl)c2C)c1 [Compound 16] ?
Reply text: 6.00 to 7.00

Inquiry: Under human TGR5 receptor (Homo sapiens, UniProt Q8TDU6): pEC50 value of Cc1cnccc1-c1cccc(C(C)(C)N(CCCC(=O)NCCN)S(=O)(=O)c2cccc(Cl)c2C)c1 [Compound 21] ?
Reply text: > 7.00

Inquiry: For the record Cc1cnccc1-c1cccc([C@H](C)N(CCCC(N)=O)S(=O)(=O)c2cccc(Cl)c2C)c1 [Compound 20AY] , what value of pEC50 is listed for human TGR5 receptor (Homo sapiens, UniProt Q8TDU6)?
Reply text: > 7.00

Inquiry: State its pEC50 on human TGR5 receptor (Homo sapiens, UniProt Q8TDU6): Cc1cnccc1-c1cccc([C@H](C)N(CCCC(=O)NCCNS(N)(=O)=O)S(=O)(=O)c2cccc(Cl)c2C)c1 [Compound 37]
Reply text: > 7.00

Inquiry: Item: Cc1noc(C)c1-c1cccc(CNS(=O)(=O)c2cccc(C(F)(F)F)c2)c1 [Compound 1] Test system: human TGR5 receptor (Homo sapiens, UniProt Q8TDU6) Read-out: pEC50 Value: ?
Reply text: 4.52 to 6.00

Inquiry: Query pEC50 on human TGR5 receptor (Homo sapiens, UniProt Q8TDU6) for O=S(=O)(NCc1cccc(-c2ccncc2C(F)(F)F)c1)c1cccc(C(F)(F)F)c1 [Compound 1BH]
Reply text: 4.52 to 6.00

Inquiry: Provide value of pEC50 for this record tested with human TGR5 receptor (Homo sapiens, UniProt Q8TDU6): C[C@@H](NS(=O)(=O)c1cccc(C(F)(F)F)c1)c1cccc(-c2ccncc2F)c1 [Compound 1BD]
Reply text: 6.00 to 7.00
